Recorded values, source ChEMBL document CHEMBL1932986.

Consider the following molecules and their measured zone of inhibition at 50000 µg/mL readings.
# System: Micrococcus luteus
# ASSAY DETAILS: Antibacterial activity against Micrococcus luteus ATCC 9631 at 50 mg/ml after 24 hrs by agar diffusion test
# Assay type: functional
# MEASUREMENT SETUP: ATCC 9631, 24 h, read-out: DIZ
The reply should contain only the number, in mm.

CHEMICAL SMILES	UNIT OF MEASURE	zone of inhibition at 50000 µg/mL
CC[C@H](CO)NC(=O)c1ccccc1O	mm	11
CC[C@@H]1COc2cc3ccccc3c(=O)n21	mm	15
CC[C@H](CO)NCc1ccc2ccc3cccc4ccc1c2c34	mm	14
CC[C@H](CO)NCc1ccnc2ccccc12	mm	10
CC[C@H](CO)NC1c2ccccc2-c2ccccc21	mm	17

Recorded result, CC[C@H](CO)NCc1c2ccccc2cc2ccccc12 , zone of inhibition at 50000 µg/mL: 19

Recorded result, CC[C@H](CO)NCc1ccc(-n2ccnc2)cc1 , zone of inhibition at 50000 µg/mL: 16

Recorded result, CC[C@H](CO)N(Cc1ccccc1)Cc1ccccc1 , zone of inhibition at 50000 µg/mL: 12

Recorded result, CC[C@H](CO)N1C(=O)C=C(C)C1=O , zone of inhibition at 50000 µg/mL: 22

Recorded result, CC[C@H](COC(C)=O)N1C(=O)C=CC1=O , zone of inhibition at 50000 µg/mL: 38

Recorded result, CC[C@H](CO)NC(=S)Nc1ccccc1 , zone of inhibition at 50000 µg/mL: 12

Recorded result, CC[C@H](CO)NCc1ccc2ccccc2c1 , zone of inhibition at 50000 µg/mL: 19

Recorded result, CC[C@H](CO)NCc1ccc(-c2ccccc2)cc1 , zone of inhibition at 50000 µg/mL: 17

Recorded result, CC[C@H](CO)NP(=O)(c1ccccc1)c1ccccc1 , zone of inhibition at 50000 µg/mL: 15

Recorded result, CC[C@H](CO)NCc1ccc2c(c1)Cc1ccccc1-2 , zone of inhibition at 50000 µg/mL: 16

Recorded result, CC[C@H](CO)N(CC(=O)Nc1c(C)cccc1C)CC(=O)Nc1c(C)cccc1C , zone of inhibition at 50000 µg/mL: 12

Recorded result, CC[C@H](CO)NCc1cccc2ccccc12 , zone of inhibition at 50000 µg/mL: 17

Recorded result, CC[C@H](CO)Nc1cccc(Br)n1 , zone of inhibition at 50000 µg/mL: 18

Recorded result, CC[C@H](CO)NCc1ccccc1O , zone of inhibition at 50000 µg/mL: 11

Recorded result, CC[C@H](CO)NCc1ccccc1OC , zone of inhibition at 50000 µg/mL: 11
